Protocol Conditions: 308.15 K; 101.33 kPa; Liquid
Exercise: state measured viscosity for each of the compounds provided.
Answers are plain numbers, in mPa·s.

These solved cases illustrate the format of a correct answer.
>>> meas_value("CCCCCCCCCCCCOS(=O)(=O)[O-].CCCCn1cc[n+](CCC#N)c1 [1-butyl-3-(2-cyanoethyl)-1H-imidazol-3-ium dodecyl sulfate]")
2938
>>> meas_value("CCCCCCCCCCn1cc[n+](CCC#N)c1.O=C([O-])c1cccc(S(=O)(=O)O)c1 [3-(2-cyanoethyl)-1-decylimidazolium 3-sulfobenzoate]")
7159
>>> meas_value("CCCCCCCCCCCCOS(=O)(=O)[O-].CCCCCCCCCCn1cc[n+](CCC#N)c1 [3-(2-cyanoethyl)-1-decylimidazolium dodecylsulfate]")
10417

Now for another entry.
Reported viscosity of CCCCn1cc[n+](CCC#N)c1.O=S(=O)([O-])c1ccccc1 [1-butyl-3-(2-cyanoethyl)-1H-imidazolium benzenesulfonate] : 1203

----------
Protocol Conditions: 353.15 K; 101.33 kPa; Liquid
± gives the expanded uncertainty stated by the source.
Answer each item with its documented viscosity.
Give your result as the value with the unit written after it.

>>> meas_value("CCCCCCCCCCCCOS(=O)(=O)[O-].CCCCn1cc[n+](CCC#N)c1 [1-butyl-3-(2-cyanoethyl)-1H-imidazol-3-ium dodecyl sulfate]")
"76 ± 1 mPa·s"
>>> meas_value("CCCCCCCCCCCCOS(=O)(=O)[O-].CCCCCCCCCCn1cc[n+](CCC#N)c1 [3-(2-cyanoethyl)-1-decylimidazolium dodecylsulfate]")
"296 ± 15 mPa·s"
>>> meas_value("CCCCn1cc[n+](CCC#N)c1.O=S(=O)([O-])c1ccccc1 [1-butyl-3-(2-cyanoethyl)-1H-imidazolium benzenesulfonate]")
"38 ± 1 mPa·s"

Let's switch to this compound now.
For this compound ( CCCCCCCCCCn1cc[n+](CCC#N)c1.O=C([O-])c1cccc(S(=O)(=O)O)c1 [3-(2-cyanoethyl)-1-decylimidazolium 3-sulfobenzoate] ), measured viscosity is 198 ± 8 mPa·s

----------
Protocol Conditions: 318.15 K; 101.33 kPa; Liquid
Recorded Metric: viscosity (mPa·s)
Numbers only, in mPa·s.

>>> meas_value("CCCCCCCCCCCCOS(=O)(=O)[O-].CCCCn1cc[n+](CCC#N)c1 [1-butyl-3-(2-cyanoethyl)-1H-imidazol-3-ium dodecyl sulfate]")
1144

Report viscosity for each item below.
1. CCCCCCCCCCCCOS(=O)(=O)[O-].CCCCCCCCCCn1cc[n+](CCC#N)c1 [3-(2-cyanoethyl)-1-decylimidazolium dodecylsulfate]
2. CCCCCCCCCCn1cc[n+](CCC#N)c1.O=C([O-])c1cccc(S(=O)(=O)O)c1 [3-(2-cyanoethyl)-1-decylimidazolium 3-sulfobenzoate]

Result block:
1: 3951; 2: 3028

Entry CCCCn1cc[n+](CCC#N)c1.O=S(=O)([O-])c1ccccc1 [1-butyl-3-(2-cyanoethyl)-1H-imidazolium benzenesulfonate] , viscosity reported as 505

----------
Protocol Conditions: 343.15 K; 101.33 kPa; Liquid
Exercise: for every item that follows, state its recorded viscosity.
Numbers only, in mPa·s.

See these solved cases before continuing.
>>> meas_value("CCCCCCCCCCn1cc[n+](CCC#N)c1.O=C([O-])c1cccc(S(=O)(=O)O)c1 [3-(2-cyanoethyl)-1-decylimidazolium 3-sulfobenzoate]")
431
>>> meas_value("CCCCCCCCCCCCOS(=O)(=O)[O-].CCCCn1cc[n+](CCC#N)c1 [1-butyl-3-(2-cyanoethyl)-1H-imidazol-3-ium dodecyl sulfate]")
162
>>> meas_value("CCCCCCCCCCCCOS(=O)(=O)[O-].CCCCCCCCCCn1cc[n+](CCC#N)c1 [3-(2-cyanoethyl)-1-decylimidazolium dodecylsulfate]")
588

The record that follows has no viscosity shown yet.
Looking up CCCCn1cc[n+](CCC#N)c1.O=S(=O)([O-])c1ccccc1 [1-butyl-3-(2-cyanoethyl)-1H-imidazolium benzenesulfonate] , I found its viscosity recorded as 78

----------
Protocol Conditions: 308.15 K; 101.33 kPa; Liquid; Vibrating tube method
Recorded Metric: mass density (kg/m3)
Give bare numbers, in kg/m3.

>>> meas_value("CCCCCCCCCCCCOS(=O)(=O)[O-].CCCCn1cc[n+](CCC#N)c1 [1-butyl-3-(2-cyanoethyl)-1H-imidazol-3-ium dodecyl sulfate]")
1116.1

Hello, I would appreciate it if you could give mass density for each entry below.
1. CCCCn1cc[n+](CCC#N)c1.O=S(=O)([O-])c1ccccc1 [1-butyl-3-(2-cyanoethyl)-1H-imidazolium benzenesulfonate]
2. CCCCCCCCCCCCOS(=O)(=O)[O-].CCCCCCCCCCn1cc[n+](CCC#N)c1 [3-(2-cyanoethyl)-1-decylimidazolium dodecylsulfate]

Result block:
[1230.2, 1043.3]

Measured mass density of CCCCCCCCCCn1cc[n+](CCC#N)c1.O=C([O-])c1cccc(S(=O)(=O)O)c1 [3-(2-cyanoethyl)-1-decylimidazolium 3-sulfobenzoate] : 1126.3

----------
Protocol Conditions: 328.15 K; 101.33 kPa; Liquid
Recorded Metric: viscosity (mPa·s)
One number for each entry, in mPa·s.

Would you please look over these solved cases?
>>> meas_value("CCCCCCCCCCCCOS(=O)(=O)[O-].CCCCn1cc[n+](CCC#N)c1 [1-butyl-3-(2-cyanoethyl)-1H-imidazol-3-ium dodecyl sulfate]")
485
>>> meas_value("CCCCCCCCCCCCOS(=O)(=O)[O-].CCCCCCCCCCn1cc[n+](CCC#N)c1 [3-(2-cyanoethyl)-1-decylimidazolium dodecylsulfate]")
1757
>>> meas_value("CCCCn1cc[n+](CCC#N)c1.O=S(=O)([O-])c1ccccc1 [1-butyl-3-(2-cyanoethyl)-1H-imidazolium benzenesulfonate]")
214

From here, focus on the item given below.
viscosity recorded for this compound, CCCCCCCCCCn1cc[n+](CCC#N)c1.O=C([O-])c1cccc(S(=O)(=O)O)c1 [3-(2-cyanoethyl)-1-decylimidazolium 3-sulfobenzoate] , is 1431

----------
Please respond with reported mass density for every item in the list.
Protocol Conditions: 313.15 K; 101.33 kPa; Liquid; Vibrating tube method
Give bare numbers, in kg/m3.

Example cases with answers are listed next.
>>> meas_value("CCCCCCCCCCn1cc[n+](CCC#N)c1.O=C([O-])c1cccc(S(=O)(=O)O)c1 [3-(2-cyanoethyl)-1-decylimidazolium 3-sulfobenzoate]")
1123.2
>>> meas_value("CCCCCCCCCCCCOS(=O)(=O)[O-].CCCCn1cc[n+](CCC#N)c1 [1-butyl-3-(2-cyanoethyl)-1H-imidazol-3-ium dodecyl sulfate]")
1112.2
>>> meas_value("CCCCCCCCCCCCOS(=O)(=O)[O-].CCCCCCCCCCn1cc[n+](CCC#N)c1 [3-(2-cyanoethyl)-1-decylimidazolium dodecylsulfate]")
1041.8

Short answer for CCCCn1cc[n+](CCC#N)c1.O=S(=O)([O-])c1ccccc1 [1-butyl-3-(2-cyanoethyl)-1H-imidazolium benzenesulfonate] : mass density was 1226.3

----------
Method Notes: refractive index (Na D-line) (dimensionless)
Protocol Conditions: 298.15 K; 101.33 kPa; Liquid; Standard Abbe refractometry
Would you kindly list refractive index for each of these compounds?
Answers are plain numbers.

Please review the entries below; each comes with its answer.
>>> meas_value("CCCCCCCCCCCCOS(=O)(=O)[O-].CCCCn1cc[n+](CCC#N)c1 [1-butyl-3-(2-cyanoethyl)-1H-imidazol-3-ium dodecyl sulfate]")
1.48791
>>> meas_value("CCCCn1cc[n+](CCC#N)c1.O=S(=O)([O-])c1ccccc1 [1-butyl-3-(2-cyanoethyl)-1H-imidazolium benzenesulfonate]")
1.53378
>>> meas_value("CCCCCCCCCCn1cc[n+](CCC#N)c1.O=C([O-])c1cccc(S(=O)(=O)O)c1 [3-(2-cyanoethyl)-1-decylimidazolium 3-sulfobenzoate]")
1.51306

Now take the following compound into account.
Form: compound = CCCCCCCCCCCCOS(=O)(=O)[O-].CCCCCCCCCCn1cc[n+](CCC#N)c1 [3-(2-cyanoethyl)-1-decylimidazolium dodecylsulfate] ; refractive index = 1.47447

----------
Kindly supply the reported mass density values for the records listed here.
Protocol Conditions: 318.15 K; 101.33 kPa; Liquid; Vibrating tube method
Answers are plain numbers, in kg/m3.

Please review the following examples before continuing.
>>> meas_value("CCCCCCCCCCCCOS(=O)(=O)[O-].CCCCCCCCCCn1cc[n+](CCC#N)c1 [3-(2-cyanoethyl)-1-decylimidazolium dodecylsulfate]")
1038.6
>>> meas_value("CCCCCCCCCCn1cc[n+](CCC#N)c1.O=C([O-])c1cccc(S(=O)(=O)O)c1 [3-(2-cyanoethyl)-1-decylimidazolium 3-sulfobenzoate]")
1119.8
>>> meas_value("CCCCCCCCCCCCOS(=O)(=O)[O-].CCCCn1cc[n+](CCC#N)c1 [1-butyl-3-(2-cyanoethyl)-1H-imidazol-3-ium dodecyl sulfate]")
1108.9

Now let's try a different one.
The recorded mass density for entry CCCCn1cc[n+](CCC#N)c1.O=S(=O)([O-])c1ccccc1 [1-butyl-3-(2-cyanoethyl)-1H-imidazolium benzenesulfonate] equals 1223.7

----------
Protocol Conditions: 293.15 K; 101.33 kPa; Liquid; Vibrating tube method
Recorded Metric: mass density (kg/m3)
Answers are plain numbers, in kg/m3.

>>> meas_value("CCCCCCCCCCn1cc[n+](CCC#N)c1.O=C([O-])c1cccc(S(=O)(=O)O)c1 [3-(2-cyanoethyl)-1-decylimidazolium 3-sulfobenzoate]")
1136.6
>>> meas_value("CCCCCCCCCCCCOS(=O)(=O)[O-].CCCCn1cc[n+](CCC#N)c1 [1-butyl-3-(2-cyanoethyl)-1H-imidazol-3-ium dodecyl sulfate]")
1128.9
>>> meas_value("CCCCn1cc[n+](CCC#N)c1.O=S(=O)([O-])c1ccccc1 [1-butyl-3-(2-cyanoethyl)-1H-imidazolium benzenesulfonate]")
1240.3

Consider the record given below.
Looking up CCCCCCCCCCCCOS(=O)(=O)[O-].CCCCCCCCCCn1cc[n+](CCC#N)c1 [3-(2-cyanoethyl)-1-decylimidazolium dodecylsulfate] , I see its mass density listed as 1053
